Test: Clearance in iv dosed rat
Type: ADME, organism-based
Settings: in vivo
property_name: clearance (mL/min/kg)
Your answer is read as mL/min/kg, so omit the unit and give the number.

input: Quick one: clearance of COCC[C@H](NC1(C(=O)N[C@@H](Cc2ncc(-c3ccccc3)o2)C(=O)O)CCCC1)C(=O)O ?
output: 4.8

###

Target: Angiotensin-converting enzyme (Homo sapiens) (UniProt P12821)
Sequence (P12821 whole entry, looked up): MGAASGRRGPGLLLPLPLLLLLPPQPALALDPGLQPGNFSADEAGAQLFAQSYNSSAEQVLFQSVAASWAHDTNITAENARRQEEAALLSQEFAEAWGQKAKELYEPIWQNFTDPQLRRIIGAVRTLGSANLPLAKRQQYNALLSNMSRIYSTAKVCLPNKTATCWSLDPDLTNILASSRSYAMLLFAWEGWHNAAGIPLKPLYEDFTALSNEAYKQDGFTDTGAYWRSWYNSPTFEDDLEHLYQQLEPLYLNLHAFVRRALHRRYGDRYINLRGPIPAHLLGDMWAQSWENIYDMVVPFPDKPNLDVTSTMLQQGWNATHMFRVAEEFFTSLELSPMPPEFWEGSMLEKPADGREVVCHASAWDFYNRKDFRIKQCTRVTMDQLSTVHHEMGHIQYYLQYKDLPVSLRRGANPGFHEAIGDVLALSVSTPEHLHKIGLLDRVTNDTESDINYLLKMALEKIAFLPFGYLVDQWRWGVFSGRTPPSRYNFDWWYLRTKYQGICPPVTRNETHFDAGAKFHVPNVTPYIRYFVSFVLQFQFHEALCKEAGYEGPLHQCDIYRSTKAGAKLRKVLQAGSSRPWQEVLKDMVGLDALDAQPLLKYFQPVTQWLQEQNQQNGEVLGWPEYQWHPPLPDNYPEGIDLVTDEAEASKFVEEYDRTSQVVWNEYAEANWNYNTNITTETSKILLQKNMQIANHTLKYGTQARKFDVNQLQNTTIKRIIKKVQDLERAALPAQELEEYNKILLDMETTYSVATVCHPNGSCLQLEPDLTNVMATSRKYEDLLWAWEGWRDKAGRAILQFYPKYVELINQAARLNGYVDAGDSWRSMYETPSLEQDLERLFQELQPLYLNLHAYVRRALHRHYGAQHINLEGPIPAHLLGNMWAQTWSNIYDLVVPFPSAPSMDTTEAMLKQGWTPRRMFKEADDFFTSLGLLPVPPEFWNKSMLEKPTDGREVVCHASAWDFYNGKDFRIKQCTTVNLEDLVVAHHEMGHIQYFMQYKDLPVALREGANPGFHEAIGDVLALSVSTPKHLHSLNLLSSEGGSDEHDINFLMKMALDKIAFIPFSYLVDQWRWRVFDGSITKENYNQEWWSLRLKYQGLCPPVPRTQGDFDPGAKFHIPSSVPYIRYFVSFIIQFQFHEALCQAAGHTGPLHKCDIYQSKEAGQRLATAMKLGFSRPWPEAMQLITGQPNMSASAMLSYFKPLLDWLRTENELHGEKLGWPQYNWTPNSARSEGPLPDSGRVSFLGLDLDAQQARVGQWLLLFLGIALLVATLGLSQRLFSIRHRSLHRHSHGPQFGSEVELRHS
Recorded IC50 for the following compounds
Your answer is read as nM, so omit the unit and give the number.

These recorded examples may help you get a feel for the data.
• CC(C)CC[C@H](N[C@@H](CCc1ccccc1)C(=O)O)C(=O)N[C@@H](Cc1ccc(-c2ccccc2)cc1)C(=O)O = 1.5
• COCC[C@H](NC1(C(=O)N[C@@H](Cc2nc(-c3ccccc3)no2)C(=O)O)CCCC1)C(=O)O = 58
• CCC[C@H](NC1(C(=O)N[C@@H](Cc2ncc(-c3ccccc3)o2)C(=O)O)CCCC1)C(=O)O = 82

input: Identify the measured IC50 of CCC[C@H](NC1(C(=O)N[C@@H](Cc2nc(CC(C)C)co2)C(=O)O)CCCC1)C(=O)O for Angiotensin-converting enzyme (Homo sapiens) (UniProt P12821).
output: 75

input: Identify the measured IC50 of CCC[C@H](NC1(C(=O)N[C@@H](Cc2nc(-c3ccccc3)co2)C(=O)O)CCCC1)C(=O)O for Angiotensin-converting enzyme (Homo sapiens) (UniProt P12821).
output: 25

input: Identify the measured IC50 of COCC[C@H](NC1(C(=O)N[C@@H](Cc2nc(C)c(-c3ccccc3)o2)C(=O)O)CCCC1)C(=O)O for Angiotensin-converting enzyme (Homo sapiens) (UniProt P12821).
output: 210

input: Identify the measured IC50 of COCC[C@H](NC1(C(=O)N[C@@H](Cc2ncc(-c3ccccc3)o2)C(=O)O)CCCC1)C(=O)O for Angiotensin-converting enzyme (Homo sapiens) (UniProt P12821).
output: 270
